- PROTOCOL TEXT: growth suppression of beta-catenin knockout HCT116, pilot screen, human colon tumor cells (AID 823);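 further: 0% = wells killed by 20 µM Hyamine and 100% = untreated DMSO cell wells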
- EXPERIMENTAL CONTEXT: CellTiter-Glo, 60 h, at 10 µM, active compounds read low
Inconclusive results are not listed. Calls of active or inactive are those of the source.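 How the source made its calls: active means cell viability at or below a set limit in both duplicate runs, the limit being the all-compound median minus 4 SD (cut at about 23% in these data, passing the limit was not always enough); inconclusive means no clear call, values can overlap the other calls; inactive means the rest.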
VALUE TYPE: viability

# batch: return viability for each of the 2 molecules below
1. COc1ccc(OC)c(C2NC(=O)NC(C)=C2C(=O)Nc2ccc(C)cc2C)c1 (stereo unspecified)
2. C=CCSC1=NC(N)=C(C#N)C2(CCCCC2)C1C(N)=O (stereo unspecified)

101% (inactive)
92.5% (inactive)

* * *

Assign viability increase to each entry below.
- PROTOCOL TEXT: viability gain of MRP-1-high H69AR cells under doxorubicin, pilot screen, MRP-1 activator project, CellTiter-Glo, duplicate (AID 807);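 further: compound pretreatment 18-22 h then 72 h combined with doxorubicin; 0% = doxorubicin alone and 100% = vehicle without doxorubicin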
- EXPERIMENTAL CONTEXT: H69AR viability with doxorubicin, CellTiter-Glo luminescence; at 10 µM; active compounds read high
Answers are plain numbers, in %.

# batch: return viability increase for each of the 7 compounds below
1. CC1Cc2nc(SCC(=O)Nc3nccs3)n(Cc3ccccc3)c(=O)c2S1 (configuration not stated)
2. COc1ccc(-c2cn3c(C)c(C(=O)Nc4ccncc4)sc3n2)cc1
3. O=C(CSc1nccc2ccccc12)N1CCN(c2ccccn2)CC1
4. O=C1c2ccccc2C(O)N1c1ccc(Cl)cc1 (configuration not stated)
5. O=C1CC(c2ccccc2)C(C(=O)Nc2ccccc2F)N1 (configuration not stated)
6. COc1cc(C(=O)Nc2nnc(C)s2)cc(OC)c1OC
7. Cc1cccc(C)c1Nc1nc2ccccc2o1

1. -2.23
2. -3.37
3. -2.78
4. -0.07
5. -0.74
6. -2
7. -0.76

# batch: return viability increase for each of the 5 compounds below
1. COCC(=O)NCCc1nc2ccccc2[nH]1
2. Cc1ccccc1C(=O)Nc1ccc2nc3n(c(=O)c2c1)CCC3
3. CCOc1ccc(N(CC(=O)N2CCCC2)S(=O)(=O)c2c(C)noc2C)cc1
4. Cc1ccc(-n2nnc3c(=O)n(Cc4cccc(C)c4)cnc32)cc1
5. O=C(Nc1ccc2c(c1)OCO2)C1CCCN1C(=O)OCc1ccccc1 (configuration not stated)

[-2.27, 0.79, -1.24, 1.15, -1.45]

* * *

- PROTOCOL TEXT: RAM signaling pathway blockade in yeast – S. cerevisiae, Pdr1DBD-CYC8 efflux-inhibited sensitized strain, primary screen (AID 1298);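 further: 0% = DMSO untreated cells without growth and 100% = 10 µM 1-NA-PP1 full growth; higher means more yeast growth rescued from 5-FOA killing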
- EXPERIMENTAL CONTEXT: S. cerevisiae cbk1-as DSE1-URA3 strain, 5-FOA growth OD615, 2 d; at 50 µM; active compounds read high
Binary classification by RAM network inhibition, with 2% as an inclusive lower bound for condition met; all other cases are condition not met.

Hi team, for COC(=O)C(C)Sc1ccc2nnc(-c3cccc(F)c3)n2n1 (stereo unspecified) , is the recorded RAM network inhibition at or above 2%?
condition not met

Hi team, for CCN(Cc1ccccc1)S(=O)(=O)c1ccc(S(=O)(=O)N2CCN(CCC#N)CC2)cc1 , is the recorded RAM network inhibition at or above 2%?
condition met

Hi team, for c1ccc(-c2cnn3nnnc3n2)cc1 , is the recorded RAM network inhibition at or above 2%?
condition not met

Hi team, for O=C(NCCc1csc(-c2cccnc2)n1)c1cccs1 , is the recorded RAM network inhibition at or above 2%?
condition not met

Hi team, for Cc1cc(NC(=O)c2cc(CC(C)C)on2)no1 , is the recorded RAM network inhibition at or above 2%?
condition met

Hi team, for O=C1CC(C(=O)Nc2nccs2)C(c2ccccc2)O1 (stereo unspecified) , is the recorded RAM network inhibition at or above 2%?
condition not met

Hi team, for COc1ccc(CSc2nnnn2Cc2ccccc2)cc1OC , is the recorded RAM network inhibition at or above 2%?
condition not met

Hi team, for O=C(O)CCCC(=O)N1CCN(c2nc(-c3ccccc3)c3ccccc3n2)CC1 , is the recorded RAM network inhibition at or above 2%?
condition met

Hi team, for CC(=Nc1ccc(C)c(C)c1)C1=C(O)CSC1=O , is the recorded RAM network inhibition at or above 2%?
condition met

Hi team, for COc1cccc(C2CC(=O)N3CN(c4cccc(Cl)c4C)CSC3=C2C#N)c1OC (stereo unspecified) , is the recorded RAM network inhibition at or above 2%?
condition met

Hi team, for Cn1c(C(=O)NCCCN2CCN(c3cccc(Cl)c3)CC2)cc2c(=O)n(C)c3ccccc3c21 , is the recorded RAM network inhibition at or above 2%?
condition met

* * *

- PROTOCOL TEXT: growth suppression of beta-catenin knockout HCT116, pilot screen, human colon tumor cells (AID 823);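 further: 0% = wells killed by 20 µM Hyamine and 100% = untreated DMSO cell wells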
- EXPERIMENTAL CONTEXT: CellTiter-Glo, 60 h, at 10 µM, active compounds read low
Inconclusive results are not listed.
Assign viability to each entry below.
Numbers only, in %.

# COMPOUND, VALUE TYPE, UNIT INFO, NUMERIC VALUE
measured = [
    ("O=C(c1ccc(CS(=O)(=O)c2ccc(Br)cc2)o1)N1CCN(c2ccccn2)CC1", "viability", "%", 98.8),
    ("O=C(CC1Sc2ccccc2NC1=O)Nc1cccc(C(=O)O)c1 (stereo unspecified)", "viability", "%", 101),
    ("COCCn1c(SCC(N)=O)nc2c(c1=O)SC(C)C2 (stereo unspecified)", "viability", "%", 99.4),
    ("CC1CCc2c(sc3nc(SCc4nc(-c5ccccc5)no4)n(C)c(=O)c23)C1 (stereo unspecified)", "viability", "%", 94),
    ("CCCn1c(NCc2ccc(N(C)C)cc2)nc2ccccc21", "viability", "%", 70.8),
]

# batch: return viability for each of the 4 compounds below
1. Cc1ccc2oc(=O)c3cc(C(=O)N4CCN(c5ncccn5)CC4)sc3c2c1
2. N#Cc1ccc(OCCN2C(=O)NC3(CCSC3)C2=O)cc1 (stereo unspecified)
3. COc1cccc2c(=O)n(CC(=O)NC3CCCC3)ccc12
4. Cc1nc2scc(-c3cccs3)c2c(=O)o1

1: 107; 2: 101; 3: 99.1; 4: 95.8

# batch: return viability for each of the 2 compounds below
1. Cc1cccc(C2Nc3ccccc3C(=O)N2CCc2ccccc2)n1 (stereo unspecified)
2. COc1ccc(CN2CCNC(=O)C2CC(=O)O)c(OC)c1 (stereo unspecified)

[78.3, 105]

* * *

- PROTOCOL TEXT: RAM signaling pathway blockade in yeast – S. cerevisiae, Pdr1DBD-CYC8 efflux-inhibited sensitized strain, primary screen (AID 1298);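 further: 0% = DMSO untreated cells without growth and 100% = 10 µM 1-NA-PP1 full growth; higher means more yeast growth rescued from 5-FOA killing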
- EXPERIMENTAL CONTEXT: S. cerevisiae cbk1-as DSE1-URA3 strain, 5-FOA growth OD615, 2 d; at 50 µM; active compounds read high
Assign RAM network inhibition to each entry below.
Numbers only, in %.

// below: answered compounds
# COMPOUND, RAM network inhibition [%]
data = [
    ("COCCN1Cc2cccc(C(=O)NCc3ccccn3)c2C1=O", 1.61),
    ("COc1ccc(Cn2c(=O)[nH]c3cc(C(=O)NCCCN4CCCCC4)ccc3c2=O)cc1", 4.83),
    ("CCOC(=O)N1CCC(NC(=O)C2CCCCN2S(=O)(=O)c2ccc(F)cc2)CC1 (configuration not stated)", -0.16),
    ("COc1ccccc1NC(=O)c1c(NC(=O)c2ccco2)sc2c1CCC2", 2.6),
    ("COC(=O)c1ccc(Nc2cc(C)nc3nc(C)nn23)cc1", 0.77),
]

# batch: return RAM network inhibition for each of the 7 compounds below
1. COc1ccc(CCN2CC(C#N)=C3c4cc(OC)c(OC)cc4CCN3C2)cc1OC
2. COCCNC(=O)Cn1cnc2sc(C)c(S(=O)(=O)N3CCC(C)CC3)c2c1=O
3. Cc1ccccc1-c1nc(CN2CCC(C(=O)O)CC2)c(C)o1
4. Cc1cc(C(=O)OCc2nnc(-c3ccccc3)o2)c(C)n1-c1ccccc1
5. C=CCSc1nc2c(c(=O)[nH]c(=O)n2C)n1Cc1ccc(C)cc1
6. Cn1c(=O)c2c(SCC(=O)NCc3ccco3)nc(CC(C)(C)C)nc2n(C)c1=O
7. O=C(Nc1ccc(Br)cc1F)c1ccc2c(c1)N(Cc1ccccc1)C(=O)CS2=O (configuration not stated)

1. -0.37
2. 5.34
3. 0.11
4. 2.44
5. 7.02
6. 5.97
7. 2.84

# batch: return RAM network inhibition for each of the 6 compounds below
1. COc1ccc(Br)cc1S(=O)(=O)N(CC(=O)N1CCOCC1)c1ccccc1
2. CC(=O)N1CCN(CCN=CC2=C(O)CC(c3ccc(Cl)cc3)CC2=O)CC1 (configuration not stated)
3. Cc1ccc(-c2nn(CC(=O)O)c(=O)c3ccccc23)cc1
4. CCC(=O)NC(c1ccccc1)c1nc2ccccc2[nH]1 (configuration not stated)
5. COc1ccc(C(=O)Nc2ccc(S(=O)(=O)Nc3cc(C)nc(C)n3)cc2)c(OC)c1
6. NC(=O)C1CCN(c2ncnc3c2c(-c2ccccc2)cn3-c2ccccc2)CC1

1: 3.62; 2: -0.17; 3: 1.1; 4: 0.62; 5: 3.78; 6: 3.9

# batch: return RAM network inhibition for each of the 4 compounds below
1. O=C(NCCN1C(=O)C2C3C=CC(C3)C2C1=O)Nc1ccc(Br)cc1 (configuration not stated)
2. O=C(CN(c1ccc(F)cc1)S(=O)(=O)c1ccc2c(c1)OCCO2)N1CCOCC1
3. CC1Cc2nc(SCC(=O)NCc3ccco3)n(Cc3ccccc3)c(=O)c2S1 (configuration not stated)
4. c1ccc2c(c1)OCC(c1csc3ncnc(N4CCOCC4)c13)O2 (configuration not stated)

1. 0.1
2. 2.45
3. 3.84
4. 8.63
